Overview of reported growth inhibition across a group of compounds:
Experiment: NCI Yeast Anticancer Drug Screen. Data for the cln2 rad14 strain (AID 165);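 further: 0% = growth equal to vehicle treated cultures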
Settings: S. cerevisiae cln2 rad14 strain, at 50.0 µM, active compounds read high
Compounds without any hit were thinned out: in the full panel of roughly 79,000, 15% have a hit.
Expressed in %, but write only the number.

Worked examples follow.
compound: C[n+]1ccc(NN)cc1
growth inhibition, %: 12.6
--
compound: CCOC(=O)c1cc2cc(C)cc(C(=O)c3ccc([N+](=O)[O-])cc3)c2[nH]1
growth inhibition, %: 4.15
--
compound: O=c1[nH]cc(F)c(=S)[nH]1
growth inhibition, %: -16.4
--
compound: COc1ccc(C2=C/C(=C/c3cccs3)C(=O)O2)cc1
growth inhibition, %: -36.9
--
compound: Nc1ccc(S(=O)(=O)Nc2nc(CN3CCCCC3)cs2)cc1
growth inhibition, %: -38.5

Prompt: Which value of growth inhibition has been reported for CCc1c(N)nc(=O)[nH]c1C(=O)O in the records?
Response: -26.3

Prompt: Can you share its growth inhibition? I mean this compound: C/C(=N\N=P(c1ccccc1)(c1ccccc1)c1ccccc1)c1ccccc1
Response: -1.4

Prompt: Can you share its growth inhibition? I mean this compound: Cc1[nH]c(=O)n2c(C)nnc2c1C(=O)Nc1cc(Cl)cc(Cl)c1
Response: 18.4

Prompt: Value lookup for growth inhibition; key = COc1ccccc1NC(=O)C(Cc1ccccc1)NC(C)=O (centres undefined)
Response: -51.5

Prompt: Entry CCN1CCCC(Nc2nc(Nc3cc(Cl)cc(Cl)c3)nc3ccc(Cl)cc23)C1 (centres undefined) has what growth inhibition?
Response: 95.5

Prompt: Which growth inhibition value belongs to CCCCCCCCCCCCCCCC[N+](C)(C)CCN ?
Response: 73.4
